Test system: DeltatarO mutant
Assay: S. aureus survival, RN4220 and DeltatarO strains – OD600, teichoic acid synthesis inhibitors, primary screen (AID 463173)
Details: S. aureus RN4220 wild type/DeltatarO growth, OD600, 18 h, stronger effect = lower value, screened at 18.75 µg/mL (by protocol)
The whole screen tested about 52,000 compounds, of which about 4,300 (8.3%) were called active. The sample holds actives, similar compounds and a random draw of the others, so the mix is not that of the screen.
Decision: survival beneath 90% gives condition met; survival meeting or exceeding 90% gives condition not met.

Compound structure: Cc1cc(=O)n2c(C(=O)Nc3ccc(C)c(Cl)c3)c(C(=O)Nc3ccccc3)sc2n1
Discrete label: condition met
//
Compound structure: COc1ccc(-c2noc(-c3ccc(C)cc3Cl)n2)cc1OC
Discrete label: condition not met
//
Compound structure: Nc1nc(Nc2ccccc2F)sc1C(=O)c1ccc(Cl)cc1
Discrete label: condition met
//
Compound structure: Nc1c(C(=O)c2ccc(F)cc2)sc(Nc2ccccc2F)c1S(=O)(=O)c1ccc(Br)cc1
Discrete label: condition met
